All figures here come from paper PMC6242908.

experimental system: MBP-KRIPP11-His6 (Trypanosoma brucei)
test method notes: fluorescence anisotropy
recorded conditions: FA: 20 mM Tris-HCl pH 7.5, 150 mM KCl, 5 mM MgCl2, 1 mM DTT, 20 nM RNA/DNA, 25 C; EMSA: same buffer with BSA and RNAsin, 150 nM RNA/DNA, 2% tris-glycine …
observation type: Kd (nM)

GGGGGGGGGGGG [G12 RNA (native)] | 660
GGGGCCUUUAAA [G4C2U3A3] | 2210
GGUGGUGGUGGU [(GGU)4] | 6550
GGGGGGGGG [G9 RNA] | 1870
GGGGGG [G6 RNA] | 1070
GGGGGGCCUUAA [G6C2U2A2] | 930
